System: RXRa homodimer (NR concentration 180 nM)
assay_name: PBM binding z-score (relative to random genomic background probes); higher = stronger binding; sequences stand for … in GC…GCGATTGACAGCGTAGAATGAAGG
Please respond with reported PBM binding z-score for every item in the list.

Request: Quick one: PBM binding z-score of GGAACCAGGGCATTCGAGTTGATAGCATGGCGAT ?
Result: 0.534

Request: Which measured PBM binding z-score value corresponds to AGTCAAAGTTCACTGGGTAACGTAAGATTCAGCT ?
Result: 4.47

Request: Entry under review: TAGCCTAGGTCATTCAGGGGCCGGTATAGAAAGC . Reported PBM binding z-score?
Result: 3.01

Request: Any idea what PBM binding z-score was measured for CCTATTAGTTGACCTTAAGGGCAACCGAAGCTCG ?
Result: 4.9

Request: Name the reported PBM binding z-score value associated with the sequence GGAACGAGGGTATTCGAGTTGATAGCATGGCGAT
Result: 0.0441

Request: Given the sequence AGAATGAGGTTAAGATCAGGGGAACAGAATACAT , what is its reported PBM binding z-score?
Result: 2.52
